Each item that follows carries a reported interaction score.
- TARGET OF ASSAY: T1, 4H3666-AA
- T1 chain: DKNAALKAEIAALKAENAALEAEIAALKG
- MEASUREMENT DESCRIPTION: two-hybrid library CCmax;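 further: natural log of median RNA to DNA barcode read ratio; higher means stronger binding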
- RUN CONDITIONS: mean of both orientations
Write the value as a bare number.

// DKIAALKAKNAALEAKIAALKAKNAALEG [4H2991-AA] : interaction score value = -1.01

Cited source for all entries: paper PMC10397247
